system tested: human TRPA1 (Homo sapiens (Human), UniProt O75762)
Sequence (O75762 whole entry): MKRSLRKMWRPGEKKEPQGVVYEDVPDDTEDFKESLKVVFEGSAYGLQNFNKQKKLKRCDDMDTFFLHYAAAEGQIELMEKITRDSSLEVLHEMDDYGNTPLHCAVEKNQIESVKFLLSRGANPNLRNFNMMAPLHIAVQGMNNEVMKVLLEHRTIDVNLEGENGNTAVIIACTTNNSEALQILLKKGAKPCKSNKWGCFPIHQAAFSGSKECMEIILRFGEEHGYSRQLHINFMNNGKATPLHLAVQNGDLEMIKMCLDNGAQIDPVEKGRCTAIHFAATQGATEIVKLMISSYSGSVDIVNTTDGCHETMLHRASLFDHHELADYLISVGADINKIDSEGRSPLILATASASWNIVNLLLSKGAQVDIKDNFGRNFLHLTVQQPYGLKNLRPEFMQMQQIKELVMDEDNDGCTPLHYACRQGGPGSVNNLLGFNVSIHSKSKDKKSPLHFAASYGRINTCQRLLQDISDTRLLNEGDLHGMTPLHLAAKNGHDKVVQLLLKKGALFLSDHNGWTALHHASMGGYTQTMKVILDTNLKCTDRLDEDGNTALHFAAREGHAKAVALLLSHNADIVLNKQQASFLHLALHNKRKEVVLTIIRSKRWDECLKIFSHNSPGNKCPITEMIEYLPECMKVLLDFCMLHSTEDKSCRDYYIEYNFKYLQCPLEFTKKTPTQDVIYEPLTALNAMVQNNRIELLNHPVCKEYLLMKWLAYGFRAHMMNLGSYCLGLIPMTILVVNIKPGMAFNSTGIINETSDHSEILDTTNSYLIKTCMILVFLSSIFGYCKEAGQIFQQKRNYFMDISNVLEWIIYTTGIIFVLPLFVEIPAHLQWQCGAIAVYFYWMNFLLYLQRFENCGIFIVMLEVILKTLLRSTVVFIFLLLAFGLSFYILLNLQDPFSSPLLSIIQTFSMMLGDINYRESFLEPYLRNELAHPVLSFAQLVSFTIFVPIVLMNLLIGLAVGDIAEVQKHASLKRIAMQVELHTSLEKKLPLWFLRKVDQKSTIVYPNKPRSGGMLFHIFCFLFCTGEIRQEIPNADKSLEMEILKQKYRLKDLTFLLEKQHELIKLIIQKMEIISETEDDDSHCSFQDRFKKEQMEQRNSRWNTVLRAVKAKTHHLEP
assay protocol: 45Calcium uptake assay, AITC induced, human TRPA1 expressing CHO cells
test parameters: AITC 30 micromolar, read-out: IC50 values hTRPA1
pIC50: −log10 of the molar value.
recorded endpoint: pIC50

[
  {
    "molecule": "Cn1c(=O)c2c(CC(=O)Nc3nc(-c4cc(Cl)ccc4F)cs3)cccc2n(C)c1=O [Compound 24]",
    "reported": 6.86
  }
]

P = Cc1oc2c(c1CC(=O)Nc1nc(-c3cc(F)c(OCC(C)(C)C)c(F)c3)cs1)c(=O)n(C)c(=O)n2C [Compound 66]
Q = Cn1c(=O)c2c(CC(=O)Nc3nc(-c4ccc(C(F)(F)F)cc4)cs3)cccc2n(C)c1=O [Compound 11]
# input Please indicate which has the smaller reported pIC50: P , or Q . // output: label of the selected item
# output Q

----------
system tested: human TRPA1 (Homo sapiens (Human), UniProt O75762)
assay protocol: 45Calcium uptake assay, AITC induced, human TRPA1 expressing CHO cells
test parameters: AITC 30 micromolar, read-out: IC50 values hTRPA1
recorded endpoint: IC50 (nM)

[
  {
    "smiles data": "Cn1nc2c(c1CC(=O)Nc1nc(-c3ccc(C(F)(F)F)cc3)cs1)c(=O)n(C)c(=O)n2C",
    "system tested": "human TRPA1 (Homo sapiens (Human), UniProt O75762)",
    "quantity unit": "nM",
    "reported": 26.6
  }
]

A = Cc1oc2c(c1CC(=O)Nc1nc(-c3cc(Cl)c(OCC(C)C)c(Cl)c3)cs1)c(=O)n(C)c(=O)n2C
B = Cn1c(=O)c2c(CC(=O)Nc3nc(-c4ccc(OC(F)(F)F)c(F)c4)cs3)ccnc2n(C)c1=O
# input Field: lower IC50 | Options: A / B Output the label that corresponds to your choice.
# output A

----------
system tested: human TRPV3 (Homo sapiens (Human), UniProt Q8NET8)
Sequence (Q8NET8 whole entry): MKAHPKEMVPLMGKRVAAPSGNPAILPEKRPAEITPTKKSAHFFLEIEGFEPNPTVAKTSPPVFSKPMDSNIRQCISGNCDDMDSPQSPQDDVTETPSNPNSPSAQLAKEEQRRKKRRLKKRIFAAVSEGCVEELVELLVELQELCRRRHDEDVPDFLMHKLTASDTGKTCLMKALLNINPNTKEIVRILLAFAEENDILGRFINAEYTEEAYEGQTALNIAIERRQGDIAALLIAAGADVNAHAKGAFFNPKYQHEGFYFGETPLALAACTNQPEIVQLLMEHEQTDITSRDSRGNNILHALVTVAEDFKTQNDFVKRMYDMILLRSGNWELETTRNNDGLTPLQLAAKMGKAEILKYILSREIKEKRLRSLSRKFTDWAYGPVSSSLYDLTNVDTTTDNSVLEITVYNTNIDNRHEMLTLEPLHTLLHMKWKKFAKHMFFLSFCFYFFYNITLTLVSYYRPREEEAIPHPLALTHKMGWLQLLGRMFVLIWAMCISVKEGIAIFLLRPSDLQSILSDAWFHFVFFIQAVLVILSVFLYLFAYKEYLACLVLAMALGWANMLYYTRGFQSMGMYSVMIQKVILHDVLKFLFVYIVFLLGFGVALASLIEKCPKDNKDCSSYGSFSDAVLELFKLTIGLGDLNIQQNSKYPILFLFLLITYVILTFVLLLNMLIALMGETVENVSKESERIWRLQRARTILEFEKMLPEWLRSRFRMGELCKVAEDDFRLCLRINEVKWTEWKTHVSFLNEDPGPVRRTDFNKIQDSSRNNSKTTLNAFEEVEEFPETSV
assay protocol: Radiometric calcium selectivity assay, CHO cells expressing human TRPV3 (2-aminoethoxydiphenyl borate)
test parameters: read-out: IC50 values hTRPV3
Some compounds, each annotated with its measured IC50.

Look over these answered cases.
[
  {
    "compound": "Cn1nc2c(c1CC(=O)Nc1nc(-c3ccc(OC(F)(F)F)c(F)c3)cs1)c(=O)n(C)c(=O)n2C [Compound 41]",
    "system tested": "human TRPV3 (Homo sapiens (Human), UniProt Q8NET8)",
    "reported": "> 10 µM"
  },
  {
    "compound": "Cn1c(=O)c2c(CC(=O)Nc3nc(-c4ccc(C(F)(F)F)c(F)c4)cs3)coc2n(C)c1=O [Compound 54]",
    "system tested": "human TRPV3 (Homo sapiens (Human), UniProt Q8NET8)",
    "reported": "> 1 µM"
  },
  {
    "compound": "Cn1c(=O)c2c(CC(=O)Nc3nc(-c4cccc(Cl)c4)cs3)cccc2n(C)c1=O [Compound 9]",
    "system tested": "human TRPV3 (Homo sapiens (Human), UniProt Q8NET8)",
    "reported": "> 1 µM"
  },
  {
    "compound": "Cn1c(=O)c2c(CC(=O)Nc3nc(-c4ccc(C(F)(F)F)cc4)cs3)cccc2n(C)c1=O [Compound 11]",
    "system tested": "human TRPV3 (Homo sapiens (Human), UniProt Q8NET8)",
    "reported": "> 10 µM"
  },
  {
    "compound": "CCc1ccc(-c2csc(NC(=O)Cc3cccc4c3c(=O)n(C)c(=O)n4C)n2)cc1 [Compound 17]",
    "system tested": "human TRPV3 (Homo sapiens (Human), UniProt Q8NET8)",
    "reported": "> 10 µM"
  },
  {
    "compound": "Cc1oc2c(c1CC(=O)Nc1nc(-c3ccc(OCC(F)(F)F)c(Cl)c3)cs1)c(=O)n(C)c(=O)n2C [Compound 74]",
    "system tested": "human TRPV3 (Homo sapiens (Human), UniProt Q8NET8)",
    "reported": "> 10 µM"
  }
]

Pending compound:
# input I have this compound here, Cn1c(=O)c2c(cnn2CC(=O)Nc2nc(-c3cc(Cl)c(OCC(C)(C)C)c(Cl)c3)cs2)n(C)c1=O [Compound 37] , and I need its recorded IC50.
# output > 10 µM

----------
system tested: human TRPA1 (Homo sapiens (Human))
assay protocol: 45Calcium uptake assay, AITC induced, human TRPA1 expressing CHO cells
test parameters: AITC 30 micromolar, read-out: IC50 values hTRPA1
pIC50: −log10 of the molar value.
recorded endpoint: pIC50

Solved entries:
[
  {
    "compound": "Cn1c(=O)c2c(CC(=O)Nc3nc(-c4cc(F)cc(C(F)(F)F)c4)cs3)c(Cl)oc2n(C)c1=O [Compound 100]",
    "pIC50": 8.29
  },
  {
    "compound": "Cn1c(=O)c2c(CC(=O)Nc3nc(-c4cc(F)c(OCC(F)(F)F)c(F)c4)cs3)ccnc2n(C)c1=O [Compound 86]",
    "pIC50": 8.16
  }
]

P = Cn1c(=O)c2c(CC(=O)Nc3nc(-c4cc(F)c(C(F)(F)F)c(F)c4)cs3)cccc2n(C)c1=O [Compound 33]
Q = Cn1c(=O)c2c(ccn2CC(=O)Nc2nc(-c3ccc(OC(F)(F)F)cc3)cs2)n(C)c1=O [Compound 34]
# input Larger number for pIC50: P , or Q ? Write the label of whichever entry you select.
# output P
(P: 8.27, Q: 7.41)

----------
pIC50 overview
system tested: human TRPV4 (Homo sapiens (Human))
assay protocol: Radiometric calcium selectivity assay, CHO cells expressing human TRPV4 (4α-phorbol 12,13-didecanoate)
test parameters: read-out: IC50 values hTRPV4
pIC50: −log10 of the molar value.

[
  {
    "compound": "Cn1c(=O)c2c(CC(=O)Nc3nc(-c4ccc(F)c(Cl)c4)cs3)cccc2n(C)c1=O [Compound 15]",
    "pIC50": "< 6.00"
  },
  {
    "compound": "Cn1c(=O)c2c(cnn2CC(=O)Nc2nc(-c3cc(F)c(OCC(C)(C)C)c(F)c3)cs2)n(C)c1=O [Compound 40]",
    "pIC50": "< 5.00"
  },
  {
    "compound": "Cc1oc2c(c1CC(=O)Nc1nc(-c3ccc(Cl)c(OC(F)(F)F)c3)cs1)c(=O)n(C)c(=O)n2C [Compound 63]",
    "pIC50": "< 5.00"
  }
]

# input Form field: reported pIC50 of Cn1c(=O)c2c(CC(=O)Nc3nc(-c4cc(F)c(C(F)(F)F)c(F)c4)cs3)cccc2n(C)c1=O [Compound 33]
# output > 6.00

# input Further, for Cn1c(=O)c2c(CC(=O)Nc3nc(-c4cc(Cl)c(OCC(F)(F)F)c(Cl)c4)cs3)coc2n(C)c1=O [Compound 57] ?
# output < 6.00

# input Quick one: Cn1c(=O)c2c(CC(=O)Nc3nc(-c4ccc(F)c(C(F)(F)F)c4F)cs3)onc2n(C)c1=O [Compound 92]
# output < 6.00

# input Another compound to check: CC(C)c1ccc(-c2csc(NC(=O)Cc3cccc4c3c(=O)n(C)c(=O)n4C)n2)cc1 [Compound 14]
# output < 6.00

----------
system tested: UniProt Q9HBA0
assay protocol: Radiometric calcium selectivity assay, CHO cells expressing human TRPV4 (4α-phorbol 12,13-didecanoate)
test parameters: read-out: IC50 values hTRPV4
recorded endpoint: IC50 (µM)

[
  {
    "compound": "Cn1c(=O)c2c(CC(=O)Nc3nc(-c4cccc(C(F)(F)F)c4F)cs3)coc2n(C)c1=O [Compound 59]",
    "system tested": "UniProt Q9HBA0",
    "recorded endpoint": "IC50",
    "reported": 2.83
  }
]

a = Cn1c(=O)c2c(CC(=O)Nc3nc(-c4ccc(F)cc4F)cs3)cccc2n(C)c1=O [Compound 13]
b = Cn1c(=O)c2c(CC(=O)Nc3nc(-c4ccc(F)c(C(F)(F)F)c4)cs3)cccc2n(C)c1=O [Compound 20]
# input Hey, between a and b which has a smaller measured IC50? State your choice using its label.
# output b

----------
Recorded IC50, one value per entry.
system tested: human TRPV4 (Homo sapiens (Human), UniProt Q9HBA0)
Sequence (Q9HBA0 whole entry): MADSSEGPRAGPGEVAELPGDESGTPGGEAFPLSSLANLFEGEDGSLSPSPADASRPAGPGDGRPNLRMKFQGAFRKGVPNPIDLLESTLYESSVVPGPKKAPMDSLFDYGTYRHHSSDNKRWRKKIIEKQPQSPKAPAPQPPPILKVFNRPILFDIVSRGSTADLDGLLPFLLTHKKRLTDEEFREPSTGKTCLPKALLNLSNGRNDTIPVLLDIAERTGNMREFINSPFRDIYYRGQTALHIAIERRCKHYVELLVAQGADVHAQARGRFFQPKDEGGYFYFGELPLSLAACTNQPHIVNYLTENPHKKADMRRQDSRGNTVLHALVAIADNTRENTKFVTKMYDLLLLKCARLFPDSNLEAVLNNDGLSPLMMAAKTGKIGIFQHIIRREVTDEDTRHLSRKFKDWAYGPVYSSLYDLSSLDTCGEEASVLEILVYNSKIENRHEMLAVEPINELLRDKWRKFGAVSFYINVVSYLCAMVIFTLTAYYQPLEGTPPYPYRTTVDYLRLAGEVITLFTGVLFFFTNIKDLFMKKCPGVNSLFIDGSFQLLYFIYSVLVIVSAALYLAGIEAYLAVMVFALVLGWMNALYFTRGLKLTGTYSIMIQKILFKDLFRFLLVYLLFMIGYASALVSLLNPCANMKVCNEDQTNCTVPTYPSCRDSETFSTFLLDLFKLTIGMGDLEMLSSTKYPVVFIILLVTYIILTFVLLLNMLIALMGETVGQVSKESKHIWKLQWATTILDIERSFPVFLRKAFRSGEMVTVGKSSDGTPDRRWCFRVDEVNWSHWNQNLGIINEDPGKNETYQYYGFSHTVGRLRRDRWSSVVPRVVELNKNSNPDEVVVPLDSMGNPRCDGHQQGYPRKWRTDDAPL
assay protocol: Radiometric calcium selectivity assay, CHO cells expressing human TRPV4 (4α-phorbol 12,13-didecanoate)
test parameters: read-out: IC50 values hTRPV4
Experimental: For selectivity screening, CHO cells stably expressing human TRPV1, human TRPV3, human TRPV4, or human TRPM8 were generated in-house and maintained in DMEM F-12 supplemented with 10% FBS and G418. All the cell types were cultured at 37° C. in humidified air containing 5% CO2. Radiometric calcium assay was performed as described above with some minor modifications. […] Radioactivity in the lysate was measured in Packard Top count after addition of liquid scintillant.

[
  {
    "smiles data": "Cc1oc2c(c1CC(=O)Nc1nc(-c3cc(F)c(OCC(C)(C)C)c(F)c3)cs1)c(=O)n(C)c(=O)n2C",
    "system tested": "human TRPV4 (Homo sapiens (Human), UniProt Q9HBA0)",
    "IC50": "> 10 µM"
  },
  {
    "smiles data": "Cn1c(=O)c2c(CC(=O)Nc3nc(-c4cc(Cl)ccc4F)cs3)cccc2n(C)c1=O",
    "system tested": "human TRPV4 (Homo sapiens (Human), UniProt Q9HBA0)",
    "IC50": "> 10 µM"
  },
  {
    "smiles data": "Cn1c(=O)c2c(CC(=O)Nc3nc(-c4cccc(OC(F)(F)F)c4)cs3)cccc2n(C)c1=O",
    "system tested": "human TRPV4 (Homo sapiens (Human), UniProt Q9HBA0)",
    "IC50": "> 1 µM"
  }
]

# input Return IC50 measured with human TRPV4 (Homo sapiens (Human), UniProt Q9HBA0) given this compound: Cc1oc2c(c1CC(=O)Nc1nc(-c3cc(F)c(C(F)(F)F)c(F)c3)cs1)c(=O)n(C)c(=O)n2C
# output > 1 µM

# input One more compound: CC(C)COc1ccc(-c2csc(NC(=O)Cc3cccc4c3c(=O)n(C)c(=O)n4C)n2)cc1
# output > 1 µM
